target-or-system: UniProt:Q64346
Sequence (Q64346 whole entry): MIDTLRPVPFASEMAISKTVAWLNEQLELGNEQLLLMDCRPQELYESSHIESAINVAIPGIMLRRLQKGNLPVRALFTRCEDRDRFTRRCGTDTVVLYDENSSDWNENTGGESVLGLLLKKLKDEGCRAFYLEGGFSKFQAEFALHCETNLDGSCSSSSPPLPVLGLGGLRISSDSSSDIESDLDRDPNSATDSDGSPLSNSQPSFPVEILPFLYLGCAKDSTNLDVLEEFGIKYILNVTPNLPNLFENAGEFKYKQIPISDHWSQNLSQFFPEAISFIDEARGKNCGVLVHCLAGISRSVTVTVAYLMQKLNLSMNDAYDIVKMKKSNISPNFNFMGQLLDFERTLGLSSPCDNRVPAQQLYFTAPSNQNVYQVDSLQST
Type: functional
The source made the active and inactive calls.
Your response should consist of one outcome taken from 1 (active), -1 (inactive)

In: What did the test return for Cc1ccc(NC(=O)CN2C(=O)S/C(=C\c3ccc(C(=O)O)cc3)C2=O)cc1 ?
Out: -1

---
In: What did the test return for Cc1cc(NC(=O)/C=C/c2cccs2)no1 ?
Out: -1

In: What did the test return for O=C(O)C(O)c1ccccc1 (centres undefined) [MANDELIC ACID] ?
Out: -1

In: What did the test return for O=c1/c(=C/c2ccc(-c3ccccc3[N+](=O)[O-])o2)sc2nc3cc(Br)cnc3n12 ?
Out: 1
